Settings: in n-propanol, 328.15 K
measurement kind: solubility (mole fraction)

compound_structure_string=COc1ccc(C(=O)c2ccc(OC)cc2)cc1 obs_value=0.00707

====

Conditions: in isopropanol, 308.15 K
measurement kind: solubility (mole fraction)

compound_structure_string=COc1ccc(C(=O)c2ccc(OC)cc2)cc1 obs_value=0.00193

====

Details: in isobutanol, 333.15 K
measurement kind: solubility (mole fraction)

compound_structure_string=COc1ccc(C(=O)c2ccc(OC)cc2)cc1 obs_value=0.00972

====

Details: in methyl acetate, 328.15 K
measurement kind: solubility (mole fraction)

compound_structure_string=COc1ccc(C(=O)c2ccc(OC)cc2)cc1 obs_value=0.0376
